A collection of compounds and their measured log10(Ki)
- study_system: purified human Factor XIa (Homo sapiens (Human))
- Sequence (P03951 whole entry, looked up): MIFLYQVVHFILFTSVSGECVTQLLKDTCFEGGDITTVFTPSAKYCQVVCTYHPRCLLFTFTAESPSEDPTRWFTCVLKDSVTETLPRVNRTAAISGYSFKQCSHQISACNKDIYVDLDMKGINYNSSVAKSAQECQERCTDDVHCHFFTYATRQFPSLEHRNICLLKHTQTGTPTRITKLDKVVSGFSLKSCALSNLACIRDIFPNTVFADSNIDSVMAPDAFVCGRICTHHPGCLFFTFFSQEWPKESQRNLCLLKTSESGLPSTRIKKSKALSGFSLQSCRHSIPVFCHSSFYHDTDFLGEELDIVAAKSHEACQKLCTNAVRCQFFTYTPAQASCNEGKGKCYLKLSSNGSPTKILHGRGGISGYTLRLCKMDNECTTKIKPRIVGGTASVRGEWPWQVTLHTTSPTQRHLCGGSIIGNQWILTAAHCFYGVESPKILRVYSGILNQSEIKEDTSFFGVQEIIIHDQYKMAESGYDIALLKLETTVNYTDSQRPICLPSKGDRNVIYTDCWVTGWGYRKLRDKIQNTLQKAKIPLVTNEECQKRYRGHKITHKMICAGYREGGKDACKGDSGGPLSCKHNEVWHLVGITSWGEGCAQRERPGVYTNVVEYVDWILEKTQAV
- Sequence (P03951 whole entry partner, looked up): as the sequence (P03951 whole entry, looked up) above
- experiment: biochemical
- Assay type: biochemical
- test_parameters: read-out: Factor XIa Ki
Structures can show the parent of a compound that is named as a salt.
reported_property: log10(Ki) (log10 of the value in nM)

{"compound": "COC(=O)Nc1ccc2c(c1)NC(=O)[C@H](C)CCC[C@H](N1CCC(c3c(C(C)=O)ccc(Cl)c3F)=CC1=O)c1cc(F)cc-2c1", "study_system": "purified human Factor XIa (Homo sapiens (Human))", "recorded_number": -0.64}
{"compound": "COC(=O)Nc1ccc2c(c1)NC(=O)[C@H](C)CCC[C@H](N1CCC(c3cccc(C)c3C)=CC1=O)c1cc-2ccn1", "study_system": "purified human Factor XIa (Homo sapiens (Human))", "recorded_number": 2.03}
{"compound": "CC1CCC[C@H](N2CCC(c3c(C(F)(F)F)ccc(Cl)c3F)=CC2=O)c2cc(ccn2)-c2ccc(C(N)=O)cc2NC1=O (stereo partly drawn) [Example 108, TFA salt]", "study_system": "purified human Factor XIa (Homo sapiens (Human))", "recorded_number": 0.91}
{"compound": "C[C@@H]1CCC[C@H](N2CCC(c3c(-c4ccccc4)ccc(Cl)c3F)=CC2=O)c2cc(ccn2)-c2ccccc2NC1=O [Example 57, TFA salt]", "study_system": "purified human Factor XIa (Homo sapiens (Human))", "recorded_number": 1.55}
{"compound": "C[C@@H]1CCC[C@H](N2CCC(c3c(-c4cccnc4)ccc(Cl)c3F)=CC2=O)c2cc(ccn2)-c2ccccc2NC1=O [Example 58, TFA salt]", "study_system": "purified human Factor XIa (Homo sapiens (Human))", "recorded_number": 1.18}
{"compound": "C[C@@H]1CCC[C@H](N2CCC(c3c(F)ccc(Cl)c3F)=CC2=O)c2cc(ccn2)-c2ccc(Nc3ccncn3)cc2NC1=O [Example 90, TFA salt]", "study_system": "purified human Factor XIa (Homo sapiens (Human))", "recorded_number": 0.26}
{"compound": "COC(=O)Nc1ccc2c(c1)NC(=O)[C@H](C)CCC[C@H](N1CCC(c3nccc(Cl)c3F)=CC1=O)c1cc-2cc(OC)n1 [Example 5, TFA salt]", "study_system": "purified human Factor XIa (Homo sapiens (Human))", "recorded_number": 0.30}
{"compound": "C[C@@H]1CCC[C@H](n2ccc(-c3c(F)ccc(Cl)c3F)cc2=O)c2cc(ccn2)-c2ccc(Nc3ncccn3)cc2NC1=O [Example 92, TFA salt]", "study_system": "purified human Factor XIa (Homo sapiens (Human))", "recorded_number": -0.25}
{"compound": "C[C@@H]1CCC[C@H](N2CCC(c3c(C#N)ccc(Cl)c3F)=CC2=O)c2cc(ccn2)-c2ccccc2NC1=O [Example 49, TFA salt]", "study_system": "purified human Factor XIa (Homo sapiens (Human))", "recorded_number": 0.03}
{"compound": "COC(=O)Nc1ccc2c(c1)NC(=O)[C@H](C)CCC[C@H](N1CCC(c3c(C(C)=O)ccc(Cl)c3F)=CC1=O)c1cccc-2c1", "study_system": "purified human Factor XIa (Homo sapiens (Human))", "recorded_number": -0.77}
{"compound": "C[C@@H]1CCC[C@H](N2CCC(c3c(F)ccc(Cl)c3F)=CC2=O)c2cc(ccn2)-c2cc3c(cc2NC1=O)NC(=O)C3 [Example 84, TFA salt]", "study_system": "purified human Factor XIa (Homo sapiens (Human))", "recorded_number": 0.43}
{"compound": "COC(=O)Nc1ccc2c(c1)NC(=O)[C@H](C)CCC[C@H](N1CCC(c3c(C#N)ccc(C)c3F)=CC1=O)c1cc-2ccn1 [Example 104, TFA salt]", "study_system": "purified human Factor XIa (Homo sapiens (Human))", "recorded_number": -1.05}
{"compound": "Cc1ccc2c(c1)-c1ccnc(c1)[C@@H](N1CCC(c3c(F)ccc(Cl)c3F)=CC1=O)CCC[C@@H](C)C(=O)N2", "study_system": "purified human Factor XIa (Homo sapiens (Human))", "recorded_number": 2.00}
{"compound": "C[C@@H]1CCC[C@H](N2CCC(c3c(Br)ccc(Cl)c3F)=CC2=O)c2cc(ccn2)-c2ccc(C(N)=O)cc2NC1=O [Example 29, TFA salt]", "study_system": "purified human Factor XIa (Homo sapiens (Human))", "recorded_number": 0.46}
{"compound": "C[C@@H]1CCC[C@H](N2CCC(c3c(F)ccc(Cl)c3F)=CC2=O)c2cc(ccn2)-c2ccc(NC3O[C@H](CO)[C@@H](O)[C@H](O)[C@@H]3O)cc2NC1=O (stereo partly drawn)", "study_system": "purified human Factor XIa (Homo sapiens (Human))", "recorded_number": 1.18}
{"compound": "C[C@@H]1CCC[C@H](N2CCC(c3c(F)ccc(Cl)c3F)=CC2=O)c2cc(ccn2)-c2c(F)cc(F)cc2NC1=O [Example 201, TFA salt]", "study_system": "purified human Factor XIa (Homo sapiens (Human))", "recorded_number": 1.70}
{"compound": "COC(=O)Nc1ccc2c(c1)NC(=O)[C@H](C)CCC[C@H](N1CCC(c3c(C#N)ccc(Cl)c3F)=CC1=O)c1cc-2cc(OC)n1", "study_system": "purified human Factor XIa (Homo sapiens (Human))", "recorded_number": -1.05}
{"compound": "C[C@@H]1CCC[C@H](N2CCC(c3c(C(F)(F)F)ccc(Cl)c3F)=CC2=O)c2cc(ccn2)-c2cc(C(=O)O)ccc2NC1=O", "study_system": "purified human Factor XIa (Homo sapiens (Human))", "recorded_number": -0.36}
{"compound": "COC(=O)Nc1ccc2c(c1)NC(=O)[C@H](C)CCC[C@H](n1ncc(-c3c(Br)ccc(Cl)c3F)cc1=O)c1cc-2ccn1 [Example 78, TFA salt]", "study_system": "purified human Factor XIa (Homo sapiens (Human))", "recorded_number": -0.01}
{"compound": "C[C@@H]1CCC[C@H](N2CCC(c3c(F)ccc(Cl)c3F)=CC2=O)c2cc(ccn2)-c2cc(Br)c(N)cc2NC1=O [Example 193, TFA salt]", "study_system": "purified human Factor XIa (Homo sapiens (Human))", "recorded_number": 0.01}
{"compound": "CC(=O)Nc1ccc2c(c1)NC(=O)[C@H](C)CCC[C@H](N1CCC(c3c(F)ccc(Cl)c3F)=CC1=O)c1cc-2ccn1 [Example 75, TFA salt]", "study_system": "purified human Factor XIa (Homo sapiens (Human))", "recorded_number": 0.55}
{"compound": "C[C@@H]1CCC[C@H](N2CCC(c3c(F)ccc(Cl)c3F)=CC2=O)c2cc(ccn2)-c2cc(C#N)ccc2NC1=O", "study_system": "purified human Factor XIa (Homo sapiens (Human))", "recorded_number": 1.56}
{"compound": "C[C@@H]1CCC[C@H](N2CCC(c3c(F)ccc(Cl)c3F)=CC2=O)c2cc(ccn2)-c2ccc(CO)cc2NC1=O", "study_system": "purified human Factor XIa (Homo sapiens (Human))", "recorded_number": 1.24}
